// provenance: paper PMC4214736

Biological target: recombinant HCV E2 protein (Con1eE2, eE2) (Hepatitis C virus (isolate Con1))
Construct: E2 ectodomain residues 384-656 cut from the HCV genome polyprotein; C-terminal Protein A tag removed by PreScission protease; secreted from HEK293T cells (lentiviral)
Sequence (Q9WMX2 384-656): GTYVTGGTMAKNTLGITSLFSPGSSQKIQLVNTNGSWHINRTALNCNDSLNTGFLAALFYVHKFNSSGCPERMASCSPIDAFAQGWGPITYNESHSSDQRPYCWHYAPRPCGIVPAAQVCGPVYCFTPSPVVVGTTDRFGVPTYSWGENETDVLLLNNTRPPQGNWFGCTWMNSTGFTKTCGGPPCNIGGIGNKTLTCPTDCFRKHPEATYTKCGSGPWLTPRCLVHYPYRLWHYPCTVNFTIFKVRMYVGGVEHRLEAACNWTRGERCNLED
Experiment: SPR single cycle kinetics (Biacore T100, CM5 chip)
Format: binding
metric: Kd (µM)
Answer with a number only, understood to be in µM.

Kd recorded for this molecule, CSc1ccc2c(c1)C(N1CCN(C)CC1)Cc1ccccc1S2 (stereo not shown) , is 41

---

Biological target: HCV E2 protein binding to GST-tagged human CD81-LEL (Hepatitis C virus (isolate Con1), UniProt Q9WMX2)
Construct: with CD81 antigen (Homo sapiens)
Sequence (P60033 113-201): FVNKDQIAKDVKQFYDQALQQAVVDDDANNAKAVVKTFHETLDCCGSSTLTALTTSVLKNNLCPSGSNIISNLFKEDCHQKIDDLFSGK
Sequence (Q9WMX2 384-656): as the sequence (Q9WMX2 384-656) above
Experiment: ELISA, inhibition of E2 binding to immobilised CD81-LEL
metric: IC50

// recorded IC50 for CSc1ccc2c(c1)C(N1CCN(C)CC1)Cc1ccccc1S2 (stereo not shown) : 200 to 500 nM
